The entries below come with measured activity at 0.313 µM values attached.
tested on: human embryonic stem cell line H1; assay: Dose titration secondary assay: cell number, H1; type: cell-based; settings: Homo sapiens, Embryonic stem cell, Conc 0.313 μM, positive control (Wnt3a/Activin A) normalized to 1.000
Write the answer as a number in %, unit excluded.

Here is how some molecules turned out for activity at 0.313 µM.
molecule: CN(C)CCCn1c2c(c3ccccc31)C1=C(C(=O)NC1=O)N(c1cccc(Cl)c1)C2 [Compound 101]
readout.units: %
activity at 0.313 µM: 61.7

molecule: O=C1NC(=O)C2=C1Nc1cccc(c1)OCCC/C=C\CCCOc1cccc2c1 [Compound 233]
readout.units: %
activity at 0.313 µM: 79.1

The value of activity at 0.313 µM recorded for O=C1NC(=O)C(c2cn(CCOCCOCCO)c3ccccc23)=C1c1cn(CCO)c2ccccc12 [Compound 110] when tested on human embryonic stem cell line H1 reads 116

The value of activity at 0.313 µM recorded for O=C1NC(=O)C(c2cn(CCCO)c3ncccc23)=C1c1cnccn1 [Compound 47] when tested on human embryonic stem cell line H1 reads 74.2

---

Test system: human embryonic stem cells (H9 or H1 lines)
Assay: Plate reader (MTS) proliferation assay
Format: cell-based
Conditions: Homo sapiens, Embryonic stem cell, 96 h; 10 μM test compound with 100 ng/ml activin A on days 1-2; MTS OD490 on day 4; vs Activin A/Wnt3a positive control; strong and moderate hits
Method: Maintenance of human embryonic stem cells (H9 or H1 lines) was conducted as described in Example 1. Colonies of cells were maintained in an undifferentiated, pluripotent state with passage on average every four days. […] The human embryonis stem cell lines used for these examples were maintained at passage numbers less than 50 and routinely evaluated for normal karyotypic phenotype as well as absence of mycoplasm contamination. […]
experimental.readout: activity at 10 µM (%)
Write the answer as a number in %, unit excluded.

compound: Cn1cc(C2=C(c3nn(CCCn4ccnn4)c4ccccc34)C(=O)NC2=O)c2cc(Cl)ccc21 [Compound 232]
activity at 10 µM, %: 132
//
compound: O=C1NC(=O)C(c2nn(CCO)c3ccccc23)=C1c1cn(-c2cncnc2)c2ccccc12 [Compound 226]
activity at 10 µM, %: 120
//
compound: O=C1NC(=O)C(c2nn(CCCO)c3ccccc23)=C1c1cn(-c2cccnc2)c2ccc(Cl)cc12 [Compound 52]
activity at 10 µM, %: 136
//
compound: Cn1ccc(C2=C(c3cn(CCCO)c4ncccc34)C(=O)NC2=O)n1 [Compound 209]
activity at 10 µM, %: 67.4
//
compound: COCCCn1cc(C2=C(c3ccccc3OC)C(=O)NC2=O)c2cnccc21 [Compound 55]
activity at 10 µM, %: 152
//
compound: Cn1cc(C2=C(c3nn(CCCn4ccnc4)c4ccccc34)C(=O)NC2=O)c2cc(Cl)ccc21 [Compound 231]
activity at 10 µM, %: 114

Entry under test: O=C1NC(=O)C(c2nn(CCCO)c3ccccc23)=C1c1cn(C2CCOCC2)c2ccccc12 [Compound 78] . Its activity at 10 µM was 154

Entry under test: O=C1NC(=O)C(c2cn(CCOCCOCCO)c3ccccc23)=C1c1cn(CCO)c2ccccc12 [Compound 110] . Its activity at 10 µM was 161

---

The entries below come with measured activity at 0.313 µM values attached.
test system: human embryonic stem cell line H1; assay: Dose titration secondary assay: cell number, H1; assay type: cell-based; details: Homo sapiens, Embryonic stem cell, Conc 0.313 μM, positive control (Wnt3a/Activin A) normalized to 1.000
Write the answer as a number in %, unit excluded.

Here is how some compounds turned out for activity at 0.313 µM.
compound: COC(=O)c1cncc(-n2cc(C3=C(c4nn(CCO)c5ccccc45)C(=O)NC3=O)c3cc(Cl)ccc32)c1 [Compound 150]
assayed.system: human embryonic stem cell line H1
readout.units: %
activity at 0.313 µM: 124

compound: O=C1NC(=O)C(c2cn(CCOCCOCCNC3CCCc4ccccc43)c3ccccc23)=C1c1cn(CCNC2CCCc3ccccc32)c2ccccc12 (stereo not shown) [Compound 144]
assayed.system: human embryonic stem cell line H1
readout.units: %
activity at 0.313 µM: 73.4

compound: Cc1c[nH]c(-c2cnc(NCCNc3ccc(C#N)cn3)nc2-c2ccc(Cl)cc2Cl)n1 [Compound 221]
assayed.system: human embryonic stem cell line H1
readout.units: %
activity at 0.313 µM: 113

Attention now turns to another entry.
Entry under test: O=C1NC(=O)C(c2nn(CCO)c3ccccc23)=C1c1cn(-c2cncnc2)c2ccccc12 [Compound 226] . Its activity at 0.313 µM was 78.5

---

tested on: human embryonic stem cells (H9 or H1 lines); assay: Plate reader (MTS) proliferation assay; type: cell-based; settings: average of replicate raw data
experimental.readout: Average
No unit in the answer, only the number.

molecule: Cn1cc(C2=C(c3nn(CC(=O)NCCO)c4ccccc34)C(=O)NC2=O)c2cc(Cl)ccc21
Average: 0.8929
--
molecule: CC(C)(O)CCn1nc(C2=C(c3cn(-c4cccnc4)c4ccccc34)C(=O)NC2=O)c2ccccc21
Average: 1.7982
--
molecule: O=C1NC(=O)C(c2nn(CCO)c3ccccc23)=C1c1cn(-c2cncnc2)c2ccccc12
Average: 1.6825

Entry under test: `O=C1NC(=O)C2=C1c1cn(c3ccccc13)CCOCCOCCN(Cc1ccncc1)CCn1cc2c2ccccc21` . Its Average was 0.8650

Entry under test: `O=C1NC(=O)C(c2cccc3c2oc2ccccc23)=C1c1cn(CCCO)c2ncccc12` . Its Average was 0.1889

Entry under test: O=C(Nc1ccc(C(=O)N2CC3CSCCN3Cc3ccccc32)c(Cl)c1)c1cc(Cl)cc(Cl)c1 (stereo not drawn) . Its Average was 1.6794

---

The entries below come with measured viability at 4 days, 2.5 μM values attached.
assay: MTS viability (toxicity) assay of cells expressing pluripotency markers; assay type: cell-based, human; details: human, cmpd conc 2.5 μM; MTS on day 4; relative to Activin A + Wnt3a positive control; read-out: % Control (percentage viability of control)
Write the answer as a number in %, unit excluded.

compound: CN(C)CCCn1c2c(c3ccccc31)C1=C(C(=O)NC1=O)N(c1cccc(Cl)c1)C2
readout.units: %
obs.value: 100

Entry under test: `CN(C)c1cccc(-n2cc(C3=C(c4nn(CCO)c5ccccc45)C(=O)NC3=O)c3ccccc32)c1` . Its viability at 4 days, 2.5 μM was 94.5

---

The entries below come with measured Average values attached.
test system: human embryonic stem cells (H9 or H1 lines); assay: Plate reader (MTS) proliferation assay; type: cell-based; conditions: average of replicate raw data
No unit in the answer, only the number.

smiles.string: CN1CCOCCOCCN(C)CCn2cc(c3ccccc32)C2=C(C(=O)NC2=O)c2cn(c3ccccc23)CC1
Average: 0.9024
//
smiles.string: O=C1NC(=O)C(c2cn(-c3cccnc3)c3ccccc23)=C1c1cn(CCO)c2ccccc12
Average: 1.7251
//
smiles.string: O=C1NC(=O)C2=C1c1cn(c3ncccc13)CCOCCOCCOCCOCCn1cc2c2cccnc21
Average: 0.7138
//
smiles.string: O=C1NC(=O)C(c2cn(CCCO)c3ncccc23)=C1c1ccn(CCCO)n1
Average: 0.2632
//
smiles.string: O=C1NC(=O)C2=C1c1cn(c3ncccc13)CCOCCOCCOCCOCCOCCn1cc2c2cccnc21
Average: 0.3421
//
smiles.string: CN(C)c1cccc(-n2cc(C3=C(c4nn(CCO)c5ccccc45)C(=O)NC3=O)c3ccccc32)c1
Average: 0.9191

Entry under test: `O=C1NC(=O)C(c2cn(CCCO)c3ncccc23)=C1c1cn(CCCO)cn1` . Its Average was 0.2828

Entry under test: `CN(C)CCCn1cc(C2=C(c3cccc4ccccc34)C(=O)NC2=O)c2cccnc21` . Its Average was 0.1467

Entry under test: `O=C1NC(=O)C2=C1Nc1cccc(c1)OCCC/C=C\CCCOc1cccc2c1` . Its Average was 1.3325

---

The entries below come with measured Raw data (duplicate), second replicate values attached.
system: cells expressing pluripotency markers derived from human embryonic stem cells; assay: MTS viability (toxicity) assay of cells expressing pluripotency markers; format: cell-based; conditions: MTS viability assay raw reading, replicate 2
No unit in the answer, only the number.

Here is how some compounds turned out for Raw data (duplicate), second replicate.
compound: O=C1NC(=O)C(c2nn(CCO)c3ccccc23)=C1c1cn(-c2cncnc2)c2ccccc12
experimental.readout: Raw data (duplicate), second replicate
obs.value: 0.688
//
compound: COc1ccccc1C1=C(c2cn(CCCNC(=O)OC(C)(C)C)c3ncccc23)C(=O)NC1=O
experimental.readout: Raw data (duplicate), second replicate
obs.value: 0.709
//
compound: CN1CCOCCOCCN(C)CCn2cc(c3ccccc32)C2=C(C(=O)NC2=O)c2cn(c3ccccc23)CC1
experimental.readout: Raw data (duplicate), second replicate
obs.value: 1.056
//
compound: COc1ccccc1C1=C(c2cn(-c3ccc4ccccc4c3)c3ncccc23)C(=O)NC1=O
experimental.readout: Raw data (duplicate), second replicate
obs.value: 0.748
//
compound: O=C(Nc1ccc(C(=O)N2CC3CSCCN3Cc3ccccc32)c(Cl)c1)c1cc(Cl)cc(Cl)c1 (stereo not shown)
experimental.readout: Raw data (duplicate), second replicate
obs.value: 0.635
//
compound: O=C1NC(=O)C(c2cn(CCCO)c3ncccc23)=C1c1cc(Cl)sc1Cl
experimental.readout: Raw data (duplicate), second replicate
obs.value: 0.554

Attention now turns to another entry.
Entry under test: `O=C1NC(=O)C2=C1Nc1cccc(c1)OCCC/C=C\CCCOc1cccc2c1` . Its Raw data (duplicate), second replicate was 0.590
